Each entry below lists one item and its recorded Stability at 24 hours value.
assay.remarks: Stability determination of amidite in solvent after 24 hours (HPLC-MS, UV 254 nm)
Format: physicochemical
measurement.context: solvent MeCN; room temperature; grades 1-3, key not given
Form: value (number only, do not type unit).

// worked examples, Stability at 24 hours included
1. COc1ccc(C(OCC2OC(n3cnc4c(=O)[nH]c(N=CN(C)C)nc43)CC2OP2OC(c3ccccc3)C3CCCN32)(c2ccccc2)c2ccc(OC)cc2)cc1 [D-DNA G-DMF] : 3
2. COc1ccc(C(OCC23COC(C(n4cc(C)c(=O)[nH]c4=O)O2)C3OP2OC(c3ccccc3)C3CCCN32)(c2ccccc2)c2ccc(OC)cc2)cc1 [D-LNA T-DMF] : 1
3. COc1ccc(C(OCC2OC(n3cnc4c(=O)[nH]c(N=CN(C)C)nc43)CC2OP2OC(c3ccccc3)C3CCCN32)(c2ccccc2)c2ccc(OC)cc2)cc1 [L-DNA G-DMF] : 2
4. COc1ccc(C(OCC2OC(n3cc(C)c(=O)[nH]c3=O)CC2OP2OC(c3ccccc3)C3CCCN32)(c2ccccc2)c2ccc(OC)cc2)cc1 [D-DNA T-DMF] : 3

Incoming: Kindly indicate its recorded Stability at 24 hours. Item: COc1ccc(C(OCC23COC(C(n4cnc5c(=O)[nH]c(N=CN(C)C)nc54)O2)C3OP2OC(c3ccccc3)C3CCCN32)(c2ccccc2)c2ccc(OC)cc2)cc1 [D-LNA G-DMF]
Outgoing: 1

###

Each entry below lists one item and its recorded Stability at 24 hours value.
assay.remarks: Stability determination of amidite in solvent after 24 hours (HPLC-MS, UV 254 nm)
Assay type: physicochemical
measurement.context: solvent MeCN:DCM (1:1); room temperature; grades 1-3, key not given
Form: value (number only, do not type unit).

1. COc1ccc(C(OC[C@@]23CO[C@@H]([C@H](n4cnc5c(=O)[nH]c(NC(=O)C(C)C)nc54)O2)[C@@H]3O[P@]2O[C@H](c3ccccc3)[C@@H]3CCCN32)(c2ccccc2)c2ccc(OC)cc2)cc1 : 2

Incoming: Kindly indicate its recorded Stability at 24 hours. Item: COc1ccc(C(OCC2OC(n3cnc4c(=O)[nH]c(N=CN(C)C)nc43)CC2OP2OC(c3ccccc3)C3CCCN32)(c2ccccc2)c2ccc(OC)cc2)cc1 [D-DNA G-DMF]
Outgoing: 3

Incoming: Kindly indicate its recorded Stability at 24 hours. Item: COc1ccc(C(OCC23COC(C(n4cnc5c(=O)[nH]c(N=CN(C)C)nc54)O2)C3OP2OC(c3ccccc3)C3CCCN32)(c2ccccc2)c2ccc(OC)cc2)cc1 (centres unmarked)
Outgoing: 1

Incoming: Kindly indicate its recorded Stability at 24 hours. Item: COc1ccc(C(OCC2OC(n3cc(C)c(=O)[nH]c3=O)CC2OP2OC(c3ccccc3)C3CCCN32)(c2ccccc2)c2ccc(OC)cc2)cc1 [D-DNA T-DMF]
Outgoing: 3

Incoming: Kindly indicate its recorded Stability at 24 hours. Item: COc1ccc(C(OCC2OC(n3cnc4c(=O)[nH]c(N=CN(C)C)nc43)CC2OP2OC(c3ccccc3)C3CCCN32)(c2ccccc2)c2ccc(OC)cc2)cc1 [L-DNA G-DMF]
Outgoing: 3

###

assay.remarks: Stability determination of amidite in solvent after 24 hours (HPLC-MS, UV 254 nm)
Assay type: physicochemical
measurement.context: solvent MeCN:Acetone (1:1); room temperature; grades 1-3, key not given
Procedure: To a 1.5 mL vial was added 0.013 mmol of amidite after which the solid material was dissolved in 0.13 mL of solvent. Hereafter, the vial was capped, vortexed, and finally left at room temperature for 24 hours. […] The mass and UV peak of the mother compound was identified at 0 hours and at 24 hours. Hereafter, the relative stability compared to other by-products was reported by integrating the UV chromatogram (254 nm) and normalizing the area to the chromatogram recorded at 0 hours (FIG. 2).
Each entry below lists one item and its recorded Stability at 24 hours value.
Form: value (number only, do not type unit).

Incoming: Kindly indicate its recorded Stability at 24 hours. Item: COc1ccc(C(OCC23COC(C(n4cnc5c(=O)[nH]c(N=CN(C)C)nc54)O2)C3OP2OC(c3ccccc3)C3CCCN32)(c2ccccc2)c2ccc(OC)cc2)cc1 (centres unmarked)
Outgoing: 2

Incoming: Kindly indicate its recorded Stability at 24 hours. Item: COc1ccc(C(OCC2OC(n3cnc4c(=O)[nH]c(N=CN(C)C)nc43)CC2OP2OC(c3ccccc3)C3CCCN32)(c2ccccc2)c2ccc(OC)cc2)cc1 [D-DNA G-DMF]
Outgoing: 3

Incoming: Kindly indicate its recorded Stability at 24 hours. Item: COc1ccc(C(OCC2OC(n3cc(C)c(=O)[nH]c3=O)CC2OP2OC(c3ccccc3)C3CCCN32)(c2ccccc2)c2ccc(OC)cc2)cc1 [D-DNA T-DMF]
Outgoing: 2

Incoming: Kindly indicate its recorded Stability at 24 hours. Item: COc1ccc(C(OCC23COC(C(n4cc(C)c(=O)[nH]c4=O)O2)C3OP2OC(c3ccccc3)C3CCCN32)(c2ccccc2)c2ccc(OC)cc2)cc1 [L-LNA T-DMF]
Outgoing: 2

Incoming: Kindly indicate its recorded Stability at 24 hours. Item: COc1ccc(C(OCC2OC(n3cnc4c(=O)[nH]c(N=CN(C)C)nc43)CC2OP2OC(c3ccccc3)C3CCCN32)(c2ccccc2)c2ccc(OC)cc2)cc1 [L-DNA G-DMF]
Outgoing: 3

Incoming: Kindly indicate its recorded Stability at 24 hours. Item: COc1ccc(C(OCC23COC(C(n4cc(C)c(=O)[nH]c4=O)O2)C3OP2OC(c3ccccc3)C3CCCN32)(c2ccccc2)c2ccc(OC)cc2)cc1 [D-LNA T-DMF]
Outgoing: 2

Incoming: Kindly indicate its recorded Stability at 24 hours. Item: COc1ccc(C(OC[C@@]23CO[C@@H]([C@H](n4cnc5c(=O)[nH]c(NC(=O)C(C)C)nc54)O2)[C@@H]3O[P@]2O[C@H](c3ccccc3)[C@@H]3CCCN32)(c2ccccc2)c2ccc(OC)cc2)cc1
Outgoing: 2

Incoming: Kindly indicate its recorded Stability at 24 hours. Item: COc1ccc(C(OCC2OC(n3cc(C)c(=O)[nH]c3=O)CC2OP2OC(c3ccccc3)C3CCCN32)(c2ccccc2)c2ccc(OC)cc2)cc1 [L-DNA T-DMF]
Outgoing: 3
